FYI, the data here is from ChEMBL document CHEMBL2384903.

# measurement-target: P2Y purinoceptor 11 (Homo sapiens)
# Sequence (Q96G91 whole entry): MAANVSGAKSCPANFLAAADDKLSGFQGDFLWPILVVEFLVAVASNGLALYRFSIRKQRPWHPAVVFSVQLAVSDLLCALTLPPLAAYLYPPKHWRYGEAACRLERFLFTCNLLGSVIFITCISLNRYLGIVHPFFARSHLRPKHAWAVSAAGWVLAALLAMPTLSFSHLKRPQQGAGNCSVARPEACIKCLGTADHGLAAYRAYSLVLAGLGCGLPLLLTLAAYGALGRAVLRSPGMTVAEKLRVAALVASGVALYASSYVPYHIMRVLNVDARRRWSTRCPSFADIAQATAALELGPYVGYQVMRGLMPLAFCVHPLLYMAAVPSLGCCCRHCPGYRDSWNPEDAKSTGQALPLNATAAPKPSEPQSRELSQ
# assay-remarks: Agonist activity at human GFP-tagged P2Y11R transfected in human 1321N1 cells assessed as induction of intracellular calcium mobilization by fluorescence assay
# Type: functional, cell-based
# experimental-parameters: read-out: EC50
Provide the recorded EC50 for the entries that follow.

// query Please give the measured EC50 for this molecule: B[P@](=O)(OC[C@H]1O[C@@H](n2cnc3c(N)nc(Cl)nc32)[C@H](O)[C@@H]1O)OP(=O)(O)O
// result 1000 nM

// query Please give the measured EC50 for this molecule: B[P@](=O)(OC[C@H]1O[C@@H](n2cnc3c(N)ncnc32)[C@H](O)[C@@H]1O)OP(=O)(O)O
// result 2900 nM

// query Please give the measured EC50 for this molecule: B[P@@](=O)(OC[C@H]1O[C@@H](n2cnc3c(N)nc(Cl)nc32)[C@H](O)[C@@H]1O)OP(=O)(O)C(Cl)(Cl)P(=O)(O)O
// result 1400 nM

###

# measurement-target: P2Y purinoceptor 1 (Homo sapiens)
# assay-remarks: Agonist activity at human GFP-tagged P2Y1R transfected in human 1321N1 cells assessed as induction of intracellular calcium mobilization by fluorescence assay
Provide the recorded EC50 for the entries that follow.
Give the number; nM is assumed, so skip it.

// query Please give the measured EC50 for this molecule: [BH3-][P@@](=O)(OC[C@H]1O[C@@H](n2cnc3c(N)ncnc32)[C@H](O)[C@@H]1O)OP(=O)([O-])[O-].[Na+].[Na+].[Na+]
// result 300

// query Please give the measured EC50 for this molecule: B[P@@](=O)(OC[C@H]1O[C@@H](n2cnc3c(N)nc(Cl)nc32)[C@H](O)[C@@H]1O)OP(=O)(O)C(Cl)(Cl)P(=O)(O)O
// result 150

// query Please give the measured EC50 for this molecule: B[P@](=O)(OC[C@H]1O[C@@H](n2cnc3c(N)nc(Cl)nc32)[C@H](O)[C@@H]1O)OP(=O)(O)O
// result 600

// query Please give the measured EC50 for this molecule: B[P@](=O)(OC[C@H]1O[C@@H](n2cnc3c(N)nc(Cl)nc32)[C@H](O)[C@@H]1O)OP(=O)(O)OP(=O)(O)O
// result 2500

###

Provide the recorded pIC50 for the entries that follow.
# assay-remarks: Antioxidant activity assessed as inhibiton of Fe2+-induced Fenton reaction-mediated hydroxyl radical formation from H2O2 measured for 150 secs by ESR analysis in presence of DMPO
# Assay type: functional
Please treat pIC50 as minus the base-10 logarithm of the molar concentration.

// query Please give the measured pIC50 for this molecule: B[P@](=O)(OC[C@H]1O[C@@H](n2cnc3c(N)nc(Cl)nc32)[C@H](O)[C@@H]1O)OP(=O)(O)OP(=O)(O)O
// result 4.44

// query Please give the measured pIC50 for this molecule: B[P@](=O)(OC[C@H]1O[C@@H](n2cnc3c(N)nc(Cl)nc32)[C@H](O)[C@@H]1O)OP(=O)(O)O
// result 3.92

// query Please give the measured pIC50 for this molecule: [BH3-][P@@](=O)(OC[C@H]1O[C@@H](n2cnc3c(N)ncnc32)[C@H](O)[C@@H]1O)OP(=O)([O-])[O-].[Na+].[Na+].[Na+]
// result 4.33

// query Please give the measured pIC50 for this molecule: B[P@@](=O)(OC[C@H]1O[C@@H](n2cnc3c(N)nc(Cl)nc32)[C@H](O)[C@@H]1O)OP(=O)(O)OP(=O)(O)O
// result 4.18

// query Please give the measured pIC50 for this molecule: B[P@@](=O)(OC[C@H]1O[C@@H](n2cnc3c(N)nc(Cl)nc32)[C@H](O)[C@@H]1O)OP(=O)(O)C(Cl)(Cl)P(=O)(O)O
// result 3.88

// query Please give the measured pIC50 for this molecule: Nc1ncnc2c1ncn2[C@@H]1O[C@H](COP(=O)(O)OP(=O)(O)O)[C@@H](O)[C@H]1O [ADENOSINE DIPHOSPHATE]
// result 3.77

###

# measurement-target: P2Y purinoceptor 1 (Homo sapiens)
# assay-remarks: Agonist activity at human GFP-tagged P2Y1R transfected in human 1321N1 cells assessed as induction of intracellular calcium mobilization by fluorescence assay
result-type: EC50 (nM)
Give the number; nM is assumed, so skip it.

// query Please give the measured EC50 for this compound: Nc1ncnc2c1ncn2[C@@H]1O[C@H](COP(=O)(O)OP(=O)(O)O)[C@@H](O)[C@H]1O [ADENOSINE DIPHOSPHATE]
// result 24

// query Please give the measured EC50 for this compound: BP(=O)(OP(=O)(O)OP(=O)(O)OC[C@H]1O[C@@H](n2cnc3c(N)ncnc32)[C@H](O)[C@@H]1O)OP(=O)(O)OP(=O)(O)OC[C@H]1O[C@@H](n2cnc3c(N)ncnc32)[C@H](O)[C@@H]1O
// result 1200

// query Please give the measured EC50 for this compound: Nc1ncnc2c1ncn2[C@@H]1O[C@H](COP(=O)(O)OP(=O)(O)OP(=O)(O)OP(=O)(O)OP(=O)(O)OC[C@H]2O[C@@H](n3cnc4c(N)ncnc43)[C@H](O)[C@@H]2O)[C@@H](O)[C@H]1O
// result 760

// query Please give the measured EC50 for this compound: B[P@](=O)(OC[C@H]1O[C@@H](n2cnc3c(N)ncnc32)[C@H](O)[C@@H]1O)OP(=O)(O)OP(=O)(O)OP(=O)(O)OP(=O)(O)OC[C@H]1O[C@@H](n2cnc3c(N)ncnc32)[C@H](O)[C@@H]1O
// result 3000

// query Please give the measured EC50 for this compound: B[P@](=O)(OC[C@H]1O[C@@H](n2cnc3c(N)nc(Cl)nc32)[C@H](O)[C@@H]1O)OP(=O)(O)C(Cl)(Cl)P(=O)(O)O
// result 950

// query Please give the measured EC50 for this compound: B[P@@](=O)(OC[C@H]1O[C@@H](n2cnc3c(N)nc(Cl)nc32)[C@H](O)[C@@H]1O)OP(=O)(O)O
// result 7

###

Provide the recorded remaining at 6 h for the entries that follow.
# assay-remarks: Metabolic stability in human serum assessed as compound remaining at 0.1 mg after 6 hrs by HPLC analysis
# Format: ADME, cell-free
# experimental-parameters: read-out: Stability
Give the number; % is assumed, so skip it.

// query Please give the measured remaining at 6 h for this compound: Nc1ncnc2c1ncn2[C@@H]1O[C@H](COP(=O)(O)OP(=O)(O)O)[C@@H](O)[C@H]1O [ADENOSINE DIPHOSPHATE]
// result 32

// query Please give the measured remaining at 6 h for this compound: [BH3-][P@@](=O)(OC[C@H]1O[C@@H](n2cnc3c(N)ncnc32)[C@H](O)[C@@H]1O)OP(=O)([O-])[O-].[Na+].[Na+].[Na+]
// result 56

// query Please give the measured remaining at 6 h for this compound: B[P@@](=O)(OC[C@H]1O[C@@H](n2cnc3c(N)nc(Cl)nc32)[C@H](O)[C@@H]1O)OP(=O)(O)O
// result 53

###

# assay-remarks: Antioxidant activity assessed as inhibiton of Fe2+-induced Fenton reaction-mediated hydroxyl radical formation from H2O2 measured for 150 secs by ESR analysis in presence of DMPO
# Format: functional
result-type: pIC50
Please treat pIC50 as minus the base-10 logarithm of the molar concentration.

// query Please give the measured pIC50 for this molecule: B[P@@](=O)(OC[C@H]1O[C@@H](n2cnc3c(N)ncnc32)[C@H](O)[C@@H]1O)OP(=O)(O)OP(=O)(O)OP(=O)(O)OP(=O)(O)OC[C@H]1O[C@@H](n2cnc3c(N)ncnc32)[C@H](O)[C@@H]1O
// result 4.23

// query Please give the measured pIC50 for this molecule: B[P@@](=O)(OC[C@H]1O[C@@H](n2cnc3c(N)nc(Cl)nc32)[C@H](O)[C@@H]1O)OP(=O)(O)O
// result 3.76

// query Please give the measured pIC50 for this molecule: O=C(O)CN(CCN(CC(=O)O)CC(=O)O)CC(=O)O
// result 4.27

###

# measurement-target: P2Y purinoceptor 1 (Homo sapiens, UniProt P47900)
# Sequence (P47900 whole entry): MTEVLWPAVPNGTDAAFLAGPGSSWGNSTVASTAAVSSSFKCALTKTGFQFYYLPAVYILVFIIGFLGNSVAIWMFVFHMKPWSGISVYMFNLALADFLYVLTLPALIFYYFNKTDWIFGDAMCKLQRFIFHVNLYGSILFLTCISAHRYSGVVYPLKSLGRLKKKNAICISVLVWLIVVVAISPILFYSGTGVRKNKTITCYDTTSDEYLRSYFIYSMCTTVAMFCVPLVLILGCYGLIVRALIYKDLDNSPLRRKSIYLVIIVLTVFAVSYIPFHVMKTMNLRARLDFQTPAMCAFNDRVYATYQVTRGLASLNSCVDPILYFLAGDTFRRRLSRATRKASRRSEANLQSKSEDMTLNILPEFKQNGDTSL
# assay-remarks: Agonist activity at human GFP-tagged P2Y1R transfected in human 1321N1 cells assessed as induction of intracellular calcium mobilization by fluorescence assay
result-type: EC50 (nM)
Give the number; nM is assumed, so skip it.

// query Please give the measured EC50 for this compound: B[P@](=O)(OC[C@H]1O[C@@H](n2cnc3c(N)ncnc32)[C@H](O)[C@@H]1O)OP(=O)(O)O
// result 13000

// query Please give the measured EC50 for this compound: B[P@@](=O)(OC[C@H]1O[C@@H](n2cnc3c(N)nc(Cl)nc32)[C@H](O)[C@@H]1O)OP(=O)(O)OP(=O)(O)O
// result 74

// query Please give the measured EC50 for this compound: B[P@@](=O)(OC[C@H]1O[C@@H](n2cnc3c(N)ncnc32)[C@H](O)[C@@H]1O)OP(=O)(O)OP(=O)(O)OP(=O)(O)OP(=O)(O)OC[C@H]1O[C@@H](n2cnc3c(N)ncnc32)[C@H](O)[C@@H]1O
// result 200
